Origin of measurements: patent US8871753B2

target: Recombinant Human Anaplastic Lymphoma Kinase (Homo sapiens, UniProt Q9UM73); construct: purchased Invitrogen, Carlsbad, Calif; assay: ALK HTRF kinase assay; type: biochemical; settings: Table D1; 90 μM ATP
Sequence (Q9UM73 19-1620): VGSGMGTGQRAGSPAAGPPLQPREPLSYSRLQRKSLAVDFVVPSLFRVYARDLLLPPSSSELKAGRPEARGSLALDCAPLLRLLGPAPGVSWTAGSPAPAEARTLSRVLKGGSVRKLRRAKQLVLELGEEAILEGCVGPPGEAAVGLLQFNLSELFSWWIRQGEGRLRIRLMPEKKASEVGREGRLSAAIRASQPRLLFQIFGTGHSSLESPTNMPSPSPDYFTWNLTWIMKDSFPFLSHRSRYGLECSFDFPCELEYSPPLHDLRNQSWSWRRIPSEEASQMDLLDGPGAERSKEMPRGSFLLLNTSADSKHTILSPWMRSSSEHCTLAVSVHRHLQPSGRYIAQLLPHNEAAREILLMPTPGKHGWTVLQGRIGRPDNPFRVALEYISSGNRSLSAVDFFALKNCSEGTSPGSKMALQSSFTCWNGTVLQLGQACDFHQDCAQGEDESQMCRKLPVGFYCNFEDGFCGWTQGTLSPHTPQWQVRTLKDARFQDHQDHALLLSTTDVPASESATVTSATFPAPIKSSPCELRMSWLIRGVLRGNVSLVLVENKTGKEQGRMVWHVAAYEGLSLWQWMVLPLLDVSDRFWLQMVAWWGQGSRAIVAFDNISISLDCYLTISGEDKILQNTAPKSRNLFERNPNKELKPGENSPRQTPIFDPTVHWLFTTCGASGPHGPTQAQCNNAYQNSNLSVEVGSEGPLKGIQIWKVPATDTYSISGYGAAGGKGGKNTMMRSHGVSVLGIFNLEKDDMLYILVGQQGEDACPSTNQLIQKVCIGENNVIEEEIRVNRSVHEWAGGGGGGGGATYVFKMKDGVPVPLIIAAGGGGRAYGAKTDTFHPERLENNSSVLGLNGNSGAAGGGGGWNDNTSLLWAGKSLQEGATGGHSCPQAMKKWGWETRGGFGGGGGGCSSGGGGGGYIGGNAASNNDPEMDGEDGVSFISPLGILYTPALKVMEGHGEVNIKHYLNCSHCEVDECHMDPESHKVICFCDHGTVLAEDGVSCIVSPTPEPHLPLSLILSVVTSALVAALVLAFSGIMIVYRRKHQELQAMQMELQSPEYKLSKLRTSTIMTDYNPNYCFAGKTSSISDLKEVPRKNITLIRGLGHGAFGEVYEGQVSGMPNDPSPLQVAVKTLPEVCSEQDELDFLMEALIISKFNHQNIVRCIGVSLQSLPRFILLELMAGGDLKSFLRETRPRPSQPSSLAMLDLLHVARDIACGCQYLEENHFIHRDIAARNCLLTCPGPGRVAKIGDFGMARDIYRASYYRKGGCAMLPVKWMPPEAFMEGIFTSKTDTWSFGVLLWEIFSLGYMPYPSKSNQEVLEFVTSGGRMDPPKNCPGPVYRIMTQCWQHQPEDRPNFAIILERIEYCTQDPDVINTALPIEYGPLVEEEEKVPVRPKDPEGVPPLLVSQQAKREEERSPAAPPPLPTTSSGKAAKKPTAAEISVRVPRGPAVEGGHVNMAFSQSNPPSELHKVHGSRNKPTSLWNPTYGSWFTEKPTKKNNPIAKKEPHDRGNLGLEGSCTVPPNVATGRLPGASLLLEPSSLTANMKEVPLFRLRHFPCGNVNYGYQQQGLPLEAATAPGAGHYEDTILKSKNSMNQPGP
Where a name gives a salt, the structure may show the parent alone.
MEASURE: IC50

# IC50 (molecule: Cn1c(NC(=O)c2cc3cc(c2)OCCSc2cccc(c2)Nc2nc(ncc2Cl)N3)nc2ccccc21 [Example D55, bis(trifluoroacetate)] ) is > 10 µM

# IC50 (molecule: Clc1cnc2nc1Nc1cccc(c1)OCc1cccc(c1)N2 [Example D7, trifluoroacetate] ) is > 10 µM

# IC50 (molecule: N#Cc1ccc2cc1OCCSc1cccc(c1)Nc1nc(ncc1Cl)N2 [Example D81, trifluoroacetate] ) is > 10 µM

# IC50 (molecule: Clc1cnc2nc1Nc1cccc(c1)CSCCc1cccc(c1)N2 [Example D32, trifluoroacetate] ) is > 1 µM

# IC50 (molecule: CC(=O)N1Cc2cccc(c2)Nc2nc(ncc2Cl)Nc2cccc1c2 [Example D71, trifluoroacetate] ) is > 1 µM

----------
target: human JAK3 (a.a. 781-1124) (Homo sapiens, UniProt P52333); construct: JAK3 (a.a. 781-1124); His tag (N); made in house; host or cells: insect cells (baculovirus); assay: In vitro JAK kinase assay (HTRF, phosphorylation of a biotinylated peptide), JAK3; format: biochemical; conditions: Table D1
Sequence (P52333 781-1124): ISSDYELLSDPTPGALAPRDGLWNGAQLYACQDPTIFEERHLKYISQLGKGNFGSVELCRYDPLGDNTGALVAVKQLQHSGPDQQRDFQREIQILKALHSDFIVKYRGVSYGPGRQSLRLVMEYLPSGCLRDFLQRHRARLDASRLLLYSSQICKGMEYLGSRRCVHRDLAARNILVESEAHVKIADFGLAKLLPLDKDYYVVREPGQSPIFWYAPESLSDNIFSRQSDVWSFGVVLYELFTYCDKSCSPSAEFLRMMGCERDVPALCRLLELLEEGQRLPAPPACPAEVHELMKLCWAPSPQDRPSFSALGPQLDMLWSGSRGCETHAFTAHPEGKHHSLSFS
pIC50: −log10 of the molar value.
Kindly state pIC50 for each of the entries shown.

# pIC50 (molecule: O=C(COc1ccc2cc1CCc1cncc(c1)Nc1ncc(Cl)c(n1)N2)N1CCN(c2ncccn2)CC1 [Example D233, tris(trifluoroacetate)] ) is < 6.40

# pIC50 (molecule: O=C(c1ccc(F)cc1F)N1CCC(CCNc2ccc3cc2CCc2cncc(c2)Nc2ncc(Cl)c(n2)N3)CC1 [Example D220, tris(trifluoroacetate)] ) is < 6.40

# pIC50 (molecule: CCS(=O)(=O)N1CCN(C(=O)COc2ccc3cc2CCc2cncc(c2)Nc2ncc(Cl)c(n2)N3)CC1 [Example D263, bis(trifluoroacetate)] ) is < 6.40

# pIC50 (molecule: O=C(CC1CN(c2nc3ccccc3s2)C1)Nc1ccc2cc1CCc1cncc(c1)Nc1ncc(Cl)c(n1)N2 [Example D138, tris(trifluoroacetate)] ) is < 6.00

# pIC50 (molecule: NS(=O)(=O)N1CCN(C(=O)COc2ccc3cc2CCc2cncc(c2)Nc2ncc(Cl)c(n2)N3)CC1 [Example D268, bis(trifluoroacetate)] ) is < 6.40

# pIC50 (molecule: N#Cc1ccccc1NC(=O)N1CCC(CCOc2ccc3cc2CCc2cncc(c2)Nc2ncc(Cl)c(n2)N3)CC1 [Example D173, bis(trifluoroacetate)] ) is < 6.40

# pIC50 (molecule: O=C(Nc1cccs1)N1CCC(CCOc2ccc3cc2CCc2cncc(c2)Nc2ncc(Cl)c(n2)N3)CC1 [Example D167, bis(trifluoroacetate)] ) is < 6.40

# pIC50 (molecule: Clc1cnc2nc1Nc1ccc(NCCC3CCNCC3)c(c1)CCc1cncc(c1)N2 [Example D216, (trifluoroacetate)] ) is < 6.40

# pIC50 (molecule: O=C(C[C@@H]1CCN(c2nc3cccnc3o2)C1)Nc1ccc2cc1CCc1cncc(c1)Nc1ncc(Cl)c(n1)N2 [Example D140, tris(trifluoroacetate)] ) is < 6.00

# pIC50 (molecule: NC(=O)N1CCN(C(=O)COc2ccc3cc2CCc2cncc(c2)Nc2ncc(Cl)c(n2)N3)CC1 [Example D270, bis(trifluoroacetate)] ) is < 6.40

# pIC50 (molecule: O=C(CC1CN(C(=O)c2c[nH]nn2)C1)Nc1ccc2cc1CCc1cncc(c1)Nc1ncc(Cl)c(n1)N2 [Example D148, bis(trifluoroacetate)] ) is < 6.00

# pIC50 (molecule: CC(=O)N1CCC(COc2ccc3cc2CCc2cncc(c2)Nc2ncc(Cl)c(n2)N3)CC1 [Example D227, bis(trifluoroacetate)] ) is < 6.40

----------
target: human JAK3 (a.a. 781-1124) (Homo sapiens, UniProt P52333); construct: JAK3 (a.a. 781-1124); His tag (N); made in house; host or cells: insect cells (baculovirus); test: In vitro JAK kinase assay (HTRF, phosphorylation of a biotinylated peptide), JAK3; assay type: biochemical; details: Table D1
MEASURE: IC50

# IC50 (compound: c1cc2cc(c1)Nc1ccnc(n1)Nc1cncc(c1)CC2 [Example D217, bis(trifluoroacetate)] ) is > 0.4 µM

# IC50 (compound: O=C(COc1ccc2cc1CCc1cncc(c1)Nc1ncc(Cl)c(n1)N2)N1CCN(c2ccncc2)CC1 [Example D243, tris(trifluoroacetate)] ) is > 0.4 µM

# IC50 (compound: Cn1cc(C(=O)N2CC(CC(=O)Nc3ccc4cc3CCc3cncc(c3)Nc3ncc(Cl)c(n3)N4)C2)cn1 [Example D142, bis(trifluoroacetate)] ) is > 1 µM

# IC50 (compound: CC1(C)Cc2cccc(NC(=O)N3CCC(CCOc4ccc5cc4CCc4cncc(c4)Nc4ncc(Cl)c(n4)N5)CC3)c2O1 [Example D175, bis(trifluoroacetate)] ) is > 0.4 µM

# IC50 (compound: O=C(C[C@H]1CCN(c2nc3cccnc3o2)C1)Nc1ccc2cc1CCc1cncc(c1)Nc1ncc(Cl)c(n1)N2 [Example D139, tris(trifluoroacetate)] ) is > 1 µM

# IC50 (compound: N#Cc1ccccc1S(=O)(=O)N1CCN(C(=O)COc2ccc3cc2CCc2cncc(c2)Nc2ncc(Cl)c(n2)N3)CC1 [Example D254, bis(trifluoroacetate)] ) is > 0.4 µM

# IC50 (compound: O=C(COc1ccc2cc1CCc1cncc(c1)Nc1ncc(Cl)c(n1)N2)N1CCN(c2nccc3occc23)CC1 [Example D245, tris(trifluoroacetate)] ) is > 0.4 µM

# IC50 (compound: O=C(COc1ccc2cc1CCc1cncc(c1)Nc1ncc(Cl)c(n1)N2)N1CCN(c2cc(Cl)ccn2)CC1 [Example D244, tris(trifluoroacetate)] ) is > 0.4 µM

----------
Kindly state IC50 for each of the entries shown.
target: human JAK3 (a.a. 781-1124) (Homo sapiens, UniProt P52333); construct: JAK3 (a.a. 781-1124); His tag (N); made in house; host or cells: insect cells (baculovirus); experiment: In vitro JAK kinase assay (HTRF, phosphorylation of a biotinylated peptide), JAK3; format: biochemical; details: Table D1

# IC50 (compound: CC(=O)N1CCN(C(=O)COc2ccc3cc2CCc2cncc(c2)Nc2ncc(Cl)c(n2)N3)CC1 [Example D252, bis(trifluoroacetate)] ) is > 400 nM

# IC50 (compound: COCC(=O)N1CCN(C(=O)COc2ccc3cc2CCc2cncc(c2)Nc2ncc(Cl)c(n2)N3)CC1 [Example D262, bis(trifluoroacetate)] ) is > 400 nM

# IC50 (compound: O=C(COc1ccc2cc1CCc1cncc(c1)Nc1ncc(Cl)c(n1)N2)N1CCN(c2nccs2)CC1 [Example D230, tris(trifluoroacetate)] ) is > 400 nM

----------
target: human JAK1 (a.a. 837-1142) (Homo sapiens); construct: human JAK1 (a.a. 837-1142); His tag (N); made in house; host or cells: insect cells (baculovirus); assay: In vitro JAK kinase assay (HTRF, phosphorylation of a biotinylated peptide), JAK1; assay type: biochemical; details: Table B1; read-out: JAK1 IC50
Sequence (P23458 849-1154): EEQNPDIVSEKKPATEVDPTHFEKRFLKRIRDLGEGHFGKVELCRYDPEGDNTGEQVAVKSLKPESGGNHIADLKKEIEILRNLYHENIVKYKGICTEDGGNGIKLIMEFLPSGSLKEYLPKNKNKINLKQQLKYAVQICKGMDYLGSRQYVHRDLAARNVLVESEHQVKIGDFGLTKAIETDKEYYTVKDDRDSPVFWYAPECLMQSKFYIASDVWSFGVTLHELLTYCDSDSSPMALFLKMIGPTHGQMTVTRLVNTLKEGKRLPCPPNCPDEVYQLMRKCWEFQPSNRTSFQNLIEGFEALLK
Counter-ions that a name gives are not always drawn.
MEASURE: log10(IC50) (log10 of the value in nM)
Could you please treat all values as log10 of IC50 in nM?

The reported log10(IC50) value, human JAK1 (a.a. 837-1142) (Homo sapiens), for O=C(Nc1ccc2cc1CCc1cccc(c1)Nc1ncc(Cl)c(n1)N2)NC1CCCNC1 (centres unmarked) [Example B238, bis(trifluoroacetate)] reads 0.91

The reported log10(IC50) value, human JAK1 (a.a. 837-1142) (Homo sapiens), for Clc1cnc2nc1Nc1ccc(CN[C@H]3CCNC3)c(c1)CCc1cccc(c1)N2 [Example B223, tris(trifluoroacetate)] reads 1.23

The reported log10(IC50) value, human JAK1 (a.a. 837-1142) (Homo sapiens), for O=C(NCc1ccco1)Nc1ccc2cc1CCc1cccc(c1)Nc1ncc(Cl)c(n1)N2 [Example B117, trifluoroacetate] reads 0.04

The reported log10(IC50) value, human JAK1 (a.a. 837-1142) (Homo sapiens), for O=C(Nc1ccccc1Cl)Nc1ccc2cc1CCc1cccc(c1)Nc1ncc(Cl)c(n1)N2 [Example B84, trifluoroacetate] reads -0.41

The reported log10(IC50) value, human JAK1 (a.a. 837-1142) (Homo sapiens), for O=C(Nc1ccc2cc1CCc1cncc(c1)Nc1ncc(Cl)c(n1)N2)N1CCN(c2ncccn2)CC1 [Example B309, tris(trifluoroacetate)] reads 1.32

The reported log10(IC50) value, human JAK1 (a.a. 837-1142) (Homo sapiens), for O=C(c1coc(Nc2ccc3cc2CCc2cccc(c2)Nc2ncc(Cl)c(n2)N3)n1)N1CCN2CCCC2C1 (centres unmarked) [Example B296] reads 0.92

The reported log10(IC50) value, human JAK1 (a.a. 837-1142) (Homo sapiens), for Cc1nc(S(=O)(=O)N2CCC(CN(C)Cc3ccc4cc3CCc3cncc(c3)Nc3ncc(Cl)c(n3)N4)CC2)cn1C [Example B343, tris(trifluoroacetate)] reads 0.58

The reported log10(IC50) value, human JAK1 (a.a. 837-1142) (Homo sapiens), for CS(=O)(=O)NCCNC(=O)Nc1ccc2cc1CCc1cccc(c1)Nc1ncc(Cl)c(n1)N2 [Example B187, trifluoroacetate] reads -0.05
